Where do the numbers come from? From ChEMBL document CHEMBL4689842.

Test system: U2OS
Experiment: Multiplex assay against U2OS
Format: toxicity, cell-based
Conditions: human, 12 h, 10 µM, compound concentration 10 uM, replicate 2
Just a reminder that ties go to not met: only Population Membrane Permeable-Phenotype (%) strictly below 10% counts as met.

COMPOUND | TESTED_TARGET | QUALITATIVE_LABEL
C[C@]12CC[C@@H]3c4ccc(O)cc4CC[C@H]3[C@@H]1CC[C@@H]2O | U2OS | met

Now look at this entry.
Task item: Is it true that Population Membrane Permeable-Phenotype (%) reported for O=c1cc(N2CCOCC2)oc2c(-c3cccc4c3sc3ccccc34)cccc12 is less than 10%?
Reply: not met

====

Tested on: HEK-293T
Experiment: Multiplex assay against HEK293T
Type: toxicity, cell-based
Details: human, 24 h, 1 µM, compound concentration 1 uM, replicate 1
MEASURED_PROPERTY: Population Pyknosed Nuclei (%)
Could you give me the number in %? Just the number is fine.

As a guide, the following entries are already answered.
COMPOUND | READOUT_UNIT | READOUT_VALUE
Cc1c[nH]c2nccc(Oc3c(F)cc(Nc4cc(Cl)nc(N)n4)cc3F)c12 | % | 52
Cc1ccc2c(c1)c1c(n2CCc2ccc(C)nc2)CCN(C)C1 [LATREPIRDINE] | % | 50
COc1cc2ncn(-c3cc(OCc4ccccc4C(F)(F)F)c(C(N)=O)s3)c2cc1OC [GW843682X] | % | 49

Task item: Request body: readout Population Pyknosed Nuclei (%), system HEK-293T, query COc1ccc(-c2ccc3ncc4c(c3c2)n(-c2ccc(N3CCNCC3)c(C(F)(F)F)c2)c(=O)n4C)cn1.O=C(O)/C=C\C(=O)O . Return the value.
Reply: 69

====

System: Fibroblast
Test: Multiplex assay against human fibroblast
Assay type: toxicity, cell-based
Details: 24 h, 10 µM, compound concentration 10 uM, replicate 1
Answer not satisfied if Population Fragmented Nuclei (%) is under 30%, and satisfied if it is 30% or more.

Illustrative cases are given below, each with its answer.
COMPOUND | QUALITATIVE_LABEL
CC1=C(C(=O)Nc2cc3cn[nH]c3cc2F)C(c2ccc(C(F)(F)F)cc2)CC(=O)N1 (stereo unspecified) | not satisfied
Cc1cccc(CN2CCN(C(c3ccccc3)c3ccc(Cl)cc3)CC2)c1.Cl.Cl (stereo unspecified) | not satisfied
Cc1ccc2c(c1)c1c(n2CCc2ccc(C)nc2)CCN(C)C1 [LATREPIRDINE] | satisfied
CN1CCN(Cc2ccc(Nc3ncc(Cl)c(Nc4ccccc4S(=O)(=O)N(C)C)n3)cc2)CC1 [DUBERMATINIB] | not satisfied
CC(C)(C)NC[C@H](O)COc1nsnc1N1CCOCC1 [TIMOLOL] | not satisfied

Task item: In plain terms: is recorded Population Fragmented Nuclei (%) at least 30% for CC(C)NC(=O)N1CC[C@H](NC2=Nc3cc(F)ccc3N(CC(F)F)c3ccc(Cl)cc32)C1 ?
Reply: satisfied

Task item: In plain terms: is recorded Population Fragmented Nuclei (%) at least 30% for O=c1[nH]c2ccccc2n1C1CCN(Cc2ccc(-c3[nH]c4cc5ncnc5cc4nc3-c3ccccc3)cc2)CC1 ?
Reply: satisfied

Task item: Hi, just wondering whether CCc1nn(CCCN2CCN(c3cccc(Cl)c3)CC2)c(=O)n1CCOc1ccccc1.Cl [NEFAZODONE HYDROCHLORIDE] shows Population Fragmented Nuclei (%) of 30% or higher.
Reply: not satisfied

Task item: Exam item: decide whether the reported Population Fragmented Nuclei (%) for COc1ccccc1CN[C@H]1C2CCN(CC2)[C@H]1C(c1ccccc1)c1ccccc1 [CP-96345] is at least 30%.
Reply: satisfied

Task item: Tell me whether Population Fragmented Nuclei (%) is at least 30% here: Cl.O=C(O)c1cc(-c2ccc(C3CCNCC3)cc2)c2ccc(-c3ccc(C(F)(F)F)cc3)cc2c1
Reply: satisfied

====

Consider the following compounds and their measured Population Hoechst High Intensity Objects (%) readings.
Tested on: Fibroblast
Experiment: Multiplex assay against human fibroblast
Assay type: toxicity, cell-based
Conditions: 12 h, 10 µM, compound concentration 10 uM, replicate 1
# unit: % | format: bare number

Recorded Population Hoechst High Intensity Objects (%), per entry:
COMPOUND | READOUT_UNIT | READOUT_VALUE
COc1ccccc1CN[C@H]1C2CCN(CC2)[C@H]1C(c1ccccc1)c1ccccc1 | % | 13
COC(=O)C1=C(C)NC(C)=C(C(=O)OCCCN2CCC(c3ccccc3)(c3ccccc3)CC2)[C@H]1c1cccc([N+](=O)[O-])c1 | % | 16
C=CC(=O)Nc1cccc(Sc2nc(Nc3ccc(N4CCN(C)CC4)cc3)ncc2Cl)c1 | % | 15
CNC(=O)Nc1ccc(-c2nc(N3CC4CCC(C3)O4)c3cnn(C4CCC5(CC4)OCCO5)c3n2)cc1 | % | 16
COc1cc2ncn(-c3cc(OCc4ccccc4C(F)(F)F)c(C(N)=O)s3)c2cc1OC [GW843682X] | % | 17

Task item: Find the recorded Population Hoechst High Intensity Objects (%) belonging to C=CC(=O)Nc1cccc(Oc2nc(Nc3ccc(N4CCN(C)CC4)cc3OC)ncc2Cl)c1 and report it.
Reply: 15

Task item: Reported Population Hoechst High Intensity Objects (%) for Cc1nc(N2CC[C@H](O)C2)ncc1-c1cc(C(F)(F)F)cc2[nH]ncc12 : what is it?
Reply: 15

Task item: Sample CC(C)c1noc(N2CCC(COc3ccc(-c4ccc(S(C)(=O)=O)cc4)nc3)CC2)n1 — what was its Population Hoechst High Intensity Objects (%)?
Reply: 5

Task item: Consider the compound COc1cc(Nc2nccc(-c3cnn4nc(OC)ccc34)n2)cc(C(F)(F)F)c1 and give its measured Population Hoechst High Intensity Objects (%).
Reply: 48

Task item: Return reported Population Hoechst High Intensity Objects (%); argument: CC(C)OC(=O)N1CCC(Oc2ncnc3c2cnn3-c2ccc(S(C)(=O)=O)cc2F)CC1
Reply: 10

Task item: Any idea what its Population Hoechst High Intensity Objects (%) is? The compound is COc1ccc(-c2ccc3ncc4c(c3c2)n(-c2ccc(N3CCNCC3)c(C(F)(F)F)c2)c(=O)n4C)cn1.O=C(O)/C=C\C(=O)O
Reply: 14

Task item: For the compound CCC1=C[C@@H]2C[N@](C1)Cc1c([nH]c3ccccc13)[C@@](C(=O)OC)(c1cc3c(cc1OC)N(C)[C@H]1[C@@](O)(C(=O)OC)[C@H](OC(C)=O)[C@]4(CC)C=CCN5CC[C@]31[C@@H]54)C2.O=C(O)C(O)C(O)C(=O)O.O=C(O)C(O)C(O)C(=O)O [VINORELBINE TARTRATE] , what Population Hoechst High Intensity Objects (%) is on record?
Reply: 18

Task item: Please report the recorded Population Hoechst High Intensity Objects (%) for CC(C)(C)NC[C@H](O)COc1nsnc1N1CCOCC1 .
Reply: 14

Task item: Requested read-out: Population Hoechst High Intensity Objects (%). Entry: CNC(=O)Nc1ccc2c(c1)[C@@]1(CC2)OC(=O)N(CC(=O)N(Cc2ccc(F)cc2)[C@@H](C)C(F)(F)F)C1=O
Reply: 14

Task item: Reported Population Hoechst High Intensity Objects (%) for CC(C)CC(=O)Nc1[nH]nc2c1CN(C(=O)C1CCN(C)CC1)C2(C)C : what is it?
Reply: 12

====

Tested on: HEK-293T
Experiment: Multiplex assay against HEK293T
Assay type: toxicity, cell-based
Conditions: human, 24 h, 10 µM, compound concentration 10 uM, replicate 1
MEASURED_PROPERTY: Population Membrane Permeable-Phenotype (%)
Hi! Could you send only the number? It should be in %, unit omitted.

COMPOUND | READOUT_VALUE
CC(C)c1noc(N2CCC(COc3ccc(-c4ccc(S(C)(=O)=O)cc4)nc3)CC2)n1 [GSK-1292263] | 7
C=CC(=O)Nc1ccc2[nH]c(=O)n(C3CCN(Cc4ccc(-c5nc6cc[nH]c(=O)c6cc5-c5ccccc5)cc4)CC3)c2c1 [Borussertib] | 8
COc1cc(Nc2nccc(-c3cnn4nc(OC)ccc34)n2)cc(C(F)(F)F)c1 | 1

Now, please, on to the next compound.
Task item: # query: Population Membrane Permeable-Phenotype (%) of entry COc1ccc(-c2ccc3ncc4c(c3c2)n(-c2ccc(N3CCNCC3)c(C(F)(F)F)c2)c(=O)n4C)cn1.O=C(O)/C=C\C(=O)O [BGT-226]
Reply: 0

====

System: U2OS
Assay: Multiplex assay against U2OS
Format: toxicity, cell-based
Details: human, 24 h, 10 µM, compound concentration 10 uM, replicate 1
# Total Cell Count values compiled below
Respond using a number only.

Consider the worked cases shown below.
COMPOUND | Total Cell Count
CNC(=O)Nc1ccc2c(c1)[C@@]1(CC2)OC(=O)N(CC(=O)N(Cc2ccc(F)cc2)[C@@H](C)C(F)(F)F)C1=O | 277
Cc1ccc(C)c(Oc2ccncc2C(=O)N2CCN(C3CC3)c3ccccc32)c1 | 152
COc1cc(Nc2nccc(-c3cnn4nc(OC)ccc34)n2)cc(C(F)(F)F)c1 | 197
CCc1nn(CCCN2CCN(c3cccc(Cl)c3)CC2)c(=O)n1CCOc1ccccc1.Cl [NEFAZODONE HYDROCHLORIDE] | 172
C[C@]12CC[C@@H]3c4ccc(O)cc4CC[C@H]3[C@@H]1CC[C@@H]2O | 140
Cc1cccc(CN2CCN(C(c3ccccc3)c3ccc(Cl)cc3)CC2)c1.Cl.Cl (centres undefined) | 181
COc1ccc(-c2ccc3ncc4c(c3c2)n(-c2ccc(N3CCNCC3)c(C(F)(F)F)c2)c(=O)n4C)cn1.O=C(O)/C=C\C(=O)O | 269
Cc1ccccc1C(c1ccccc1C)N1C2CCC1CC(O)(c1ccccc1)C2 (centres undefined) | 201

Task item: Give its Total Cell Count value. Item: Cc1c[nH]c2nccc(Oc3c(F)cc(Nc4cc(Cl)nc(N)n4)cc3F)c12
Reply: 135

Task item: # Total Cell Count lookup, item CC1=C(C(=O)Nc2cc3cn[nH]c3cc2F)C(c2ccc(C(F)(F)F)cc2)CC(=O)N1 (centres undefined)
Reply: 277

Task item: Dear colleague, I am looking for the recorded Total Cell Count of the following compound: CC(C)NC(=O)N1CC[C@H](NC2=Nc3cc(F)ccc3N(CC(F)F)c3ccc(Cl)cc32)C1
Reply: 112

Task item: // returns reported Total Cell Count for input C=CC(=O)Nc1cccc(Oc2nc(Nc3ccc(N4CCN(C)CC4)cc3OC)ncc2Cl)c1
Reply: 182

Task item: Item under review: CC(C)c1noc(N2CCC(COc3ccc(-c4ccc(S(C)(=O)=O)cc4)nc3)CC2)n1 . Reported Total Cell Count?
Reply: 168

Task item: Need Total Cell Count of CNC(=O)Nc1ccc(-c2nc(N3CC4CCC(C3)O4)c3cnn(C4CCC5(CC4)OCCO5)c3n2)cc1 , thanks.
Reply: 66
